Data provenance is PubChem BioAssay.

assay: drug combination growth inhibition, ovarian cancer – cell-based, oncology-focused library, rucaparib conditional, profiling panel (AID 1508598); settings: patient-derived ovarian cancer cells, CellTiter-Glo viability, 144 h; at 5 µM; OCI-C5x cells; with rucaparib 10 µM; 100% = cells with rucaparib alone
Active and inactive are the calls of the source.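 The calls were made as follows: active = normalized viability below 100% at a tested concentration; inactive = the rest.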
Classes used: YES (active), NO (inactive)

{"Molecule": "Cc1cccc(Nc2nc(-c3ccncc3)cs2)c1", "Answer label": "NO"}
{"Molecule": "C=CC(=O)Nc1cc(Nc2nccc(-c3cn(C)c4ccccc34)n2)c(OC)cc1N(C)CCN(C)C", "Answer label": "YES"}
{"Molecule": "Nc1nccc(Oc2ccc(NC(=O)c3c[nH]cc(-c4ccc(F)cc4)c3=O)cc2F)c1Cl", "Answer label": "NO"}
{"Molecule": "Cc1ccc2nc(NC(=O)CSc3nc4c(c(=O)n3-c3ccccc3)SCC4)sc2c1", "Answer label": "NO"}
{"Molecule": "Cc1csc(-c2nnc(Nc3ccc(Oc4ncccc4-c4ccnc(N)n4)cc3)c3ccccc23)c1", "Answer label": "NO"}
{"Molecule": "CC(C)c1ccccc1Cc1cc(C(=O)Nc2ccc(S(=O)(=O)c3ccccc3C(C)(C)C)cc2)c(O)c(O)c1O", "Answer label": "YES"}
{"Molecule": "O=C(/C=C/c1cccc(S(=O)(=O)Nc2ccccc2)c1)NO", "Answer label": "YES"}
{"Molecule": "Cc1c(NC(=O)OC[C@@H]2COCCN2)cn2ncnc(Nc3ccc4c(cnn4Cc4cccc(F)c4)c3)c12", "Answer label": "YES"}
{"Molecule": "CO[C@@H](C(=O)N1Cc2[nH]nc(NC(=O)c3ccc(N4CCN(C)CC4)cc3)c2C1)c1ccccc1", "Answer label": "YES"}
{"Molecule": "COc1ccc(S(=O)(=O)Nc2cccnc2Nc2ccc(O)cc2)cc1", "Answer label": "YES"}
{"Molecule": "CS(=O)(=O)c1ccc(C(=O)Nc2ccc(Cl)c(-c3ccccn3)c2)c(Cl)c1", "Answer label": "NO"}
{"Molecule": "C#CC[C@H](c1nc2cc(Cl)ccc2c(=O)n1Nc1ccccc1)N(CCCN)C(=O)c1cccc(Cl)c1F", "Answer label": "YES"}
{"Molecule": "O=c1cc(N2CCOCC2)oc2c(-c3cccc4c3sc3ccccc34)cccc12", "Answer label": "YES"}
{"Molecule": "Cn1cnc2c(F)c(Nc3ccc(Br)cc3Cl)c(C(=O)NOCCO)cc21", "Answer label": "YES"}
{"Molecule": "COc1cc(OC2CCN(C)CC2)ccc1Nc1ncc2c(n1)n(C1CCCC1)c(=O)n2C", "Answer label": "YES"}
{"Molecule": "CN1CCN(c2nc(C3=C(c4c[nH]c5ccccc45)C(=O)NC3=O)c3ccccc3n2)CC1", "Answer label": "NO"}
{"Molecule": "O=C(O)[C@H](Cc1c[nH]c2ccccc12)N1C(=O)c2ccccc2C1=O", "Answer label": "NO"}
{"Molecule": "N#CCNC(=O)c1ccc(-c2ccnc(Nc3ccc(N4CCOCC4)cc3)n2)cc1", "Answer label": "YES"}
{"Molecule": "CCN(CC)CCCCNc1ncc2cc(-c3cc(OC)cc(OC)c3)c(NC(=O)NC(C)(C)C)nc2n1", "Answer label": "NO"}
{"Molecule": "O=C(Nc1cccc(Cl)c1)Nc1ncc(CCNc2ncnc3ccsc23)s1", "Answer label": "NO"}
{"Molecule": "CN1CCCN(C(=O)c2cccc(-c3ccc(/C=C4/C(=O)Nc5ccc(Cl)cc54)o3)c2)CC1", "Answer label": "YES"}
{"Molecule": "COc1ncc(-c2ccc3nccc(-c4ccnnc4)c3c2)cc1NS(=O)(=O)c1ccc(F)cc1F", "Answer label": "YES"}
{"Molecule": "O=C(c1cc(Cc2n[nH]c(=O)c3ccccc23)ccc1F)N1CCN(C(=O)C2CC2)CC1", "Answer label": "NO"}
{"Molecule": "COc1cc2c(Oc3ccc4[nH]c(C)cc4c3F)ncnc2cc1OCCCN1CCCC1", "Answer label": "NO"}
{"Molecule": "CC[C@@H]1C(=O)N(C)c2cnc(Nc3ccc(C(=O)NC4CCC(N5CCN(CC6CC6)CC5)CC4)cc3OC)nc2N1C(C)C (some centres not stated)", "Answer label": "YES"}
{"Molecule": "CC1COC2(CCN(c3nc(=O)c4cc(C(F)(F)F)cc([N+](=O)[O-])c4s3)CC2)O1 (configuration not stated)", "Answer label": "NO"}
{"Molecule": "CC(C)(C)Cn1c(N)nc2ccc(-c3[nH]c(C(C)(C)C)nc3-c3ccc(F)cc3)nc21", "Answer label": "NO"}
{"Molecule": "CCCCCCCCc1ccc(CCC(N)(CO)CO)cc1", "Answer label": "YES"}
{"Molecule": "COc1ccc(-c2ccc3c(N4CCOC[C@@H]4C)nc(N4CCOC[C@@H]4C)nc3n2)cc1CO", "Answer label": "YES"}
{"Molecule": "COc1c(C)cnc(Cn2cnc3c(Cl)nc(N)nc32)c1C", "Answer label": "YES"}
{"Molecule": "Cc1ccc(F)c(NC(=O)Nc2ccc(-c3cccc4[nH]nc(N)c34)cc2)c1", "Answer label": "YES"}
{"Molecule": "CC(C)c1cc(-c2n[nH]c(=O)n2-c2ccc3c(ccn3C)c2)c(O)cc1O", "Answer label": "YES"}
{"Molecule": "Cc1cn(-c2cc(NC(=O)c3ccc(C)c(Nc4nccc(-c5cccnc5)n4)c3)cc(C(F)(F)F)c2)cn1", "Answer label": "NO"}
{"Molecule": "Nc1ccccc1NC(=O)c1ccc(CNc2nccc(-c3cccnc3)n2)cc1", "Answer label": "YES"}
{"Molecule": "O=C(Nc1ccc(OC(F)(F)F)cc1)c1sccc1NCc1ccnc2ccccc12", "Answer label": "YES"}
{"Molecule": "CN(NC(=O)CC(=O)NN(C)C(=S)c1ccccc1)C(=S)c1ccccc1", "Answer label": "NO"}
{"Molecule": "CC1(C)CCC(c2ccc(Cl)cc2)=C(CN2CCN(c3ccc(C(=O)NS(=O)(=O)c4ccc(N[C@H](CCN5CCOCC5)CSc5ccccc5)c(S(=O)(=O)C(F)(F)F)c4)cc3)CC2)C1", "Answer label": "YES"}

* * *

assay: drug combination growth inhibition, ovarian cancer – cell-based, oncology-focused library, rucaparib conditional, profiling panel (AID 1508598); conditions: patient-derived ovarian cancer cells, CellTiter-Glo viability, 144 h; at 0.00488 µM; OCI-P5x cells; without rucaparib
Activity calls are given as the source filed them.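 Rule for the calls: active = normalized viability below 100% at a tested concentration; inactive = the rest.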
Classes used: active, inactive

{"Molecule": "O=C(Nc1ccc(OC(F)(F)F)cc1)c1sccc1NCc1ccnc2ccccc12", "Answer label": "active"}
{"Molecule": "Cn1cc(CNCC2CCN(c3ncc(C(=O)NO)cn3)CC2)c2ccccc21", "Answer label": "active"}
{"Molecule": "CN1CCCN(C(=O)c2cccc(-c3ccc(/C=C4/C(=O)Nc5ccc(Cl)cc54)o3)c2)CC1", "Answer label": "inactive"}
{"Molecule": "CC1COC2(CCN(c3nc(=O)c4cc(C(F)(F)F)cc([N+](=O)[O-])c4s3)CC2)O1 (centres undefined)", "Answer label": "inactive"}
{"Molecule": "COc1cc(Nc2ncc(F)c(Nc3ccc4c(n3)NC(=O)C(C)(C)O4)n2)cc(OC)c1OC", "Answer label": "active"}
{"Molecule": "O=C(CCCCCCC(=O)Nc1ccc([C@H]2O[C@@H](CSc3nc(-c4ccccc4)c(-c4ccccc4)o3)C[C@@H](c3ccc(CO)cc3)O2)cc1)NO", "Answer label": "inactive"}
{"Molecule": "COc1cc2nccc(Oc3ccc(NC(=O)NC4CC4)c(Cl)c3)c2cc1C(N)=O", "Answer label": "inactive"}
{"Molecule": "CCC[C@H](Nc1nc(-c2ccc(NC(=O)NCC)c(OC)c2)ncc1C)c1cccnc1", "Answer label": "active"}
{"Molecule": "CN(c1ncccc1CNc1nc(Nc2ccc3c(c2)CC(=O)N3)ncc1C(F)(F)F)S(C)(=O)=O", "Answer label": "inactive"}

* * *

assay: viability loss in pontine glioma line – cell-based, JHH-DIPG-1, MIPE4.0, CellTiter-Glo, qHTS, dose response (AID 1347062); conditions: JHH-DIPG-1 viability, CellTiter-Glo ATP luminescence;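 as to AC50: cells exposed to compound for two days before readout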
Inconclusive results are not listed. Calls of active or inactive are those of the source. No cut-off is given here; in the data, nearly all actives have AC50 up to about 27 µM.
Classes used: active, inactive

{"Molecule": "Cc1nc(Nc2n[nH]c3c2CN(C(=O)N[C@H](CN(C)C)c2ccccc2)C3(C)C)c2sccc2n1", "Answer label": "active"}
{"Molecule": "Cc1[nH]nc2ccc(-c3cncc(OC[C@@H](N)Cc4ccccc4)c3)cc12", "Answer label": "active"}
{"Molecule": "O=C(c1ccc(F)c(F)c1Nc1ccc(I)cc1F)N1CC(O)([C@@H]2CCCCN2)C1", "Answer label": "active"}
{"Molecule": "Clc1cccc(-c2nnnn2Cc2cccnc2)c1Cl", "Answer label": "inactive"}
{"Molecule": "CC1(C)CC(=O)c2c(C(F)(F)F)nn(-c3ccc(C(N)=O)c(NC4CCC(O)CC4)c3)c2C1 (centres undefined)", "Answer label": "active"}
{"Molecule": "CC(C)c1nn(-c2c(Cl)cccc2Cl)c2nc(Cc3ccc(OCCO)cc3)[nH]c(=O)c12", "Answer label": "active"}
{"Molecule": "CN1CCN(c2ccc3nc(-c4c(N)c5c(F)cccc5[nH]c4=O)[nH]c3c2)CC1", "Answer label": "active"}
{"Molecule": "Cc1cccc(-c2nn(C(=S)Nc3ccccc3)cc2-c2ccnc3ccccc23)n1", "Answer label": "inactive"}
{"Molecule": "CN(C)C(=O)c1ccc(S(=O)(=O)c2ccc(NC(=O)[C@@](C)(O)C(F)(F)F)c(Cl)c2)cc1", "Answer label": "inactive"}
